biological target: PIk1 (Homo sapiens); construct: His tag (histidine tag) (N); assay: PIk1 kinase activity inhibition assay (33P incorporation into alpha casein, flash plates); conditions: recombinant N-terminally histidine-tagged PIk1, alpha casein as substrate, 100 nM Li-ATP, 80 minutes at 30°C
RESULT TYPE: IC50

Problem: Provide the reported IC50 (system: PIk1 (Homo sapiens)) for COc1cc(C(=O)NC2CCN(C)CC2)ccc1Nc1ncc2c(n1)c(-c1csc(C)c1)c(OCC1CC1)c(=O)n2C [Example 60]
Result: < 0.01 µM

Problem: Provide the reported IC50 (system: PIk1 (Homo sapiens)) for COc1cc(C(=O)NC2CCN(C)CC2)ccc1Nc1ncc2c(cc(OC)c(=O)n2C)n1 [Example 21]
Result: < 1 µM

Problem: Provide the reported IC50 (system: PIk1 (Homo sapiens)) for COc1cc(C(=O)NC2CCN(C)CC2)ccc1Nc1ncc2c(n1)c(C1=C(C)CCCC1)c(OC)c(=O)n2C [Example 17]
Result: < 1 µM

====

Kindly supply the reported pIC50 values for the records listed here.
target: PIk1 (Homo sapiens); construct: His tag (histidine tag) (N); test: PIk1 kinase activity inhibition assay (33P incorporation into alpha casein, flash plates); details: recombinant N-terminally histidine-tagged PIk1, alpha casein as substrate, 100 nM Li-ATP, 80 minutes at 30°C
pIC50: −log10 of the molar value.

Problem: Provide the reported pIC50 (system: PIk1 (Homo sapiens)) for COc1cc(C(=O)NC2CCN(C)CC2)ccc1Nc1ncc2c(n1)c(-c1ccncc1)c(OCC1CC1)c(=O)n2C [Example 68]
Result: > 8.00

Problem: Provide the reported pIC50 (system: PIk1 (Homo sapiens)) for COc1cc(C(=O)NC2CCN(C)CC2)ccc1Nc1ncc2c(cc(OCC3CCCCC3)c(=O)n2C)n1 [Example 9]
Result: > 6.00

Problem: Provide the reported pIC50 (system: PIk1 (Homo sapiens)) for COc1cc(C(=O)NC2CCN(C(C)C)CC2)ccc1Nc1ncc2c(n1)c(-c1ccsc1)c(OCC1CC1)c(=O)n2C [Example 49]
Result: > 8.00

Problem: Provide the reported pIC50 (system: PIk1 (Homo sapiens)) for COc1cc(C(=O)NC2CCN(C)CC2)ccc1Nc1ncc2c(n1)c(-c1cscn1)c(OCC1CC1)c(=O)n2C [Example 63]
Result: > 8.00

Problem: Provide the reported pIC50 (system: PIk1 (Homo sapiens)) for C/C=C/c1c(OC)c(=O)n(C)c2cnc(Nc3ccc(C(=O)Nc4cccnc4)cc3OC)nc12 [Example 28]
Result: > 6.00

Problem: Provide the reported pIC50 (system: PIk1 (Homo sapiens)) for COc1cc(C(=O)NC2CCN(C)CC2)ccc1Nc1ncc2c(n1)c(C(C)C)c(OC)c(=O)n2C [Example 24]
Result: > 6.00

Problem: Provide the reported pIC50 (system: PIk1 (Homo sapiens)) for COc1cc(C(=O)NC2CCN(C)CC2)ccc1Nc1ncc2c(cc(OCC3CCCO3)c(=O)n2C)n1 (stereo not shown) [Example 13]
Result: > 6.00

Problem: Provide the reported pIC50 (system: PIk1 (Homo sapiens)) for C/C=C/c1c(OCC2CCCC2)c(=O)n(C)c2cnc(Nc3ccc(C(=O)NC4CCN(C)CC4)cc3OC)nc12 [Example 42]
Result: > 7.00

Problem: Provide the reported pIC50 (system: PIk1 (Homo sapiens)) for C=C(C)c1c(OC)c(=O)n(C)c2cnc(Nc3ccc(C(=O)NC4CCN(C)CC4)cc3OC)nc12 [Example 22]
Result: > 7.00

Problem: Provide the reported pIC50 (system: PIk1 (Homo sapiens)) for CCC(C)Oc1c(-c2ccsc2)c2nc(Nc3ccc(C(=O)NC4CCN(C)CC4)cc3OC)ncc2n(C)c1=O (stereo not shown) [Example 36]
Result: > 7.00

Problem: Provide the reported pIC50 (system: PIk1 (Homo sapiens)) for COc1cc(C(=O)NC2CCN(C)CC2)ccc1Nc1ncc2c(n1)c(C1=CCCC1)c(OC)c(=O)n2C [Example 6]
Result: > 7.00

Problem: Provide the reported pIC50 (system: PIk1 (Homo sapiens)) for COc1cc(C(=O)NC2CCN(C)CC2)ccc1Nc1ncc2c(n1)c(-c1ccccc1F)c(OCC1CC1)c(=O)n2C [Example 59]
Result: > 8.00

Problem: Provide the reported pIC50 (system: PIk1 (Homo sapiens)) for CCOc1c(-c2ncco2)c2nc(Nc3ccc(C(=O)NC4CCN(C)CC4)cc3OC)ncc2n(C)c1=O [Example 44]
Result: > 7.00

Problem: Provide the reported pIC50 (system: PIk1 (Homo sapiens)) for COc1cc(C(=O)NC2CCN(C)CC2)ccc1Nc1ncc2c(n1)c(-c1ccsc1)c(OC)c(=O)n2C [Example 4]
Result: > 8.00

Problem: Provide the reported pIC50 (system: PIk1 (Homo sapiens)) for COc1cc(C(=O)NC2CCN(C)CC2)ccc1Nc1ncc2c(cc(OCC3CC3)c(=O)n2C)n1 [Example 7]
Result: > 7.00

Problem: Provide the reported pIC50 (system: PIk1 (Homo sapiens)) for CCOc1cc(C(=O)NC2CCN(C)CC2)ccc1Nc1ncc2c(n1)c(-c1ccsc1)c(OCC1CC1)c(=O)n2C [Example 75]
Result: > 8.00

====

target: PIk1 (Homo sapiens, UniProt P53350); construct: His tag (histidine tag) (N); assay: PIk1 kinase activity inhibition assay (33P incorporation into alpha casein, flash plates); conditions: recombinant N-terminally histidine-tagged PIk1, alpha casein as substrate, 100 nM Li-ATP, 80 minutes at 30°C
Sequence (P53350 whole entry): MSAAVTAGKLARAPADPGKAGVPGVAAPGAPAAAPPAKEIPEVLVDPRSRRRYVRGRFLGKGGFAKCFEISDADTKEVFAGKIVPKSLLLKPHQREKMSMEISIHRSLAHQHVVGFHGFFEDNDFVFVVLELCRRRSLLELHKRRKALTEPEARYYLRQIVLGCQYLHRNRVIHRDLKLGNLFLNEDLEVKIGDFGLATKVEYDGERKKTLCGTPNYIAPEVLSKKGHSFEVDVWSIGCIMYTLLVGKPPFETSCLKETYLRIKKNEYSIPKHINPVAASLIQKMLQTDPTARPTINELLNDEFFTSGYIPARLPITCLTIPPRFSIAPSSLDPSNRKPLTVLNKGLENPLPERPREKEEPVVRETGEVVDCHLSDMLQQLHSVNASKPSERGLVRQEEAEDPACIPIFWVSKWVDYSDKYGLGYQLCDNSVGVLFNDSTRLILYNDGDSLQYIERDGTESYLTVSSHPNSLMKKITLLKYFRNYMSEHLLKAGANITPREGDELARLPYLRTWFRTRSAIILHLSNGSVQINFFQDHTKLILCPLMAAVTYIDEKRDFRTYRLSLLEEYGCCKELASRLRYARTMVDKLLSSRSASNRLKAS
RESULT TYPE: IC50

Problem: Give the reported IC50 for this compound. COc1cc(C(=O)NC2CCN(C)CC2)ccc1Nc1ncc2c(n1)c(-c1cc(C)cs1)c(OCC1CC1)c(=O)n2C
Result: < 10 nM

Problem: Give the reported IC50 for this compound. COc1cc(C(=O)NC2CCN(C)CC2)ccc1Nc1ncc2c(n1)c(-c1ccccn1)c(OCC1CC1)c(=O)n2C
Result: < 10 nM

Problem: Give the reported IC50 for this compound. CCOc1c(C2CC2)c2nc(Nc3ccc(C(=O)NC4CCN(C)CC4)cc3OC)ncc2n(C)c1=O
Result: < 100 nM

Problem: Give the reported IC50 for this compound. COc1cc(C(=O)NC2CCN(C)CC2)ccc1Nc1ncc2c(n1)c(-c1ccco1)c(OC)c(=O)n2C
Result: < 100 nM

Problem: Give the reported IC50 for this compound. CN1CCC(NC(=O)c2ccc(Nc3ncc4c(n3)c(-c3ccsc3)c(OCC3CC3)c(=O)n4C)c(Cl)c2)CC1
Result: < 10 nM

Problem: Give the reported IC50 for this compound. COc1cc(C(=O)NC2CCN(C)CC2)ccc1Nc1ncc2c(n1)c(-c1cccc(C)c1)c(OCC1CC1)c(=O)n2C
Result: < 10 nM

Problem: Give the reported IC50 for this compound. COc1cc(C(=O)NC2CCN(C)CC2)ccc1Nc1ncc2c(n1)c(-c1cccc(F)c1)c(OCC1CC1)c(=O)n2C
Result: < 10 nM

Problem: Give the reported IC50 for this compound. CCOc1c(-c2ccsc2)c2nc(Nc3ccc(C(=O)NC4CCN(C)CC4)cc3OC)ncc2n(C)c1=O
Result: < 10 nM

Problem: Give the reported IC50 for this compound. COc1cc(C(=O)NC2CCN(C)CC2)ccc1Nc1ncc2c(n1)c(C1CC1)c(OCC1CC1)c(=O)n2C
Result: < 10 nM

Problem: Give the reported IC50 for this compound. COc1cc(C(=O)NC2CCN(C)CC2)ccc1Nc1ncc2c(n1)c(-c1ccsc1)c(OC(C)C)c(=O)n2C
Result: < 100 nM

Problem: Give the reported IC50 for this compound. COc1cc(C(=O)NC2CCN(C)CC2)ccc1Nc1ncc2c(cc(OCC3CCOC3)c(=O)n2C)n1 (stereo not drawn)
Result: < 1000 nM

Problem: Give the reported IC50 for this compound. C/C=C/c1c(OCC2CC2)c(=O)n(C)c2cnc(Nc3ccc(C(=O)NC4CCN(C)CC4)cc3C)nc12
Result: < 10 nM

Problem: Give the reported IC50 for this compound. COc1cc(C(=O)NC2CCN(C)CC2)ccc1Nc1ncc2c(n1)c(C1CCCC1)c(OC)c(=O)n2C
Result: < 100 nM

Problem: Give the reported IC50 for this compound. COc1cc(C(=O)NC2CCN(C)CC2)ccc1Nc1ncc2c(n1)c(-c1ccsc1)c(OC1CC1)c(=O)n2C
Result: < 10 nM

Problem: Give the reported IC50 for this compound. CCOc1c(-c2nccs2)c2nc(Nc3ccc(C(=O)NC4CCN(C)CC4)cc3OC)ncc2n(C)c1=O
Result: < 100 nM

====

target: PIk1 (Homo sapiens, UniProt P53350); construct: His tag (histidine tag) (N); test: PIk1 kinase activity inhibition assay (33P incorporation into alpha casein, flash plates); details: recombinant N-terminally histidine-tagged PIk1, alpha casein as substrate, 100 nM Li-ATP, 80 minutes at 30°C
RESULT TYPE: IC50

Problem: Give the reported IC50 for this compound. Cc1cc(C(=O)NC2CCN(C)CC2)ccc1Nc1ncc2c(n1)c(-c1ccsc1)c(OCC1CC1)c(=O)n2C
Result: < 0.01 µM

Problem: Give the reported IC50 for this compound. COc1cc(C(=O)NC2CCN(C)CC2)ccc1Nc1ncc2c(n1)c(-c1ccoc1)c(OCC1CC1)c(=O)n2C
Result: < 0.01 µM

Problem: Give the reported IC50 for this compound. COc1cc(C(=O)NC2CCN(C)CC2)ccc1Nc1ncc2c(n1)c(Cl)c(OC)c(=O)n2C
Result: < 1 µM
